These data points were gathered from patent US10130615B2.

# Tested system: κ-opioid receptor (Homo sapiens)
# Sequence (P41145 whole entry): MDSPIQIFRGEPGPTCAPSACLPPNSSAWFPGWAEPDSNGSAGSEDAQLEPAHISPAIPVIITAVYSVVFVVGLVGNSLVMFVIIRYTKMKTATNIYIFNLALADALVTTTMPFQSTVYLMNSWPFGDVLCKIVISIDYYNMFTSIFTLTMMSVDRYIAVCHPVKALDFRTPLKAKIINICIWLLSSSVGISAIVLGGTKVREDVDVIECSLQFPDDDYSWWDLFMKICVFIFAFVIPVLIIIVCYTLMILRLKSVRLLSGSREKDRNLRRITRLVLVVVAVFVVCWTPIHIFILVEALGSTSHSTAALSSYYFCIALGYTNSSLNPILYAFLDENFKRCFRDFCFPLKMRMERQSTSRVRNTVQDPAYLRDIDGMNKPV
# Procedure summary: κ-opioid receptor β-Arr2 activity response, U2OS cells
# Assay type: cell-based
# Set-up: expressed in transfected cells; host or cells: U-2 OS
# Reported conditions: U2OS cells
Note to self: use yes only for Emax readings below 50%; a reading exactly at 50% still gets no.

Completed entries (count: 5):
>>> print(df.to_string())
                                   compound  label
0  C[C@H]1[C@H]2Cc3ccc(O)cc3[C@]1(CCNCCc1ccc(S(N)(=O)=O)cc1)CCN2C [Compound 59]    yes
1  C[C@H]1[C@H]2Cc3ccc(O)cc3[C@]1(CCOc1cncc(C(=O)O)c1)CCN2C [Compound 52]    yes
2  COc1ccc2c(c1)[C@]1(CCOCc3ccccc3)CCN(CC3CC3)[C@H](C2)[C@@H]1C [Compound 45]     no
3  C[C@H]1[C@H]2Cc3ccc(O)cc3[C@]1(CCNC(=O)c1ccc(C(=O)O)cc1)CCN2CC1CC1 [Compound 32]    yes
4  COC(=O)[C@H](Cc1ccccc1)NCCCC[C@]12CCN(CC3CC3)[C@H](Cc3ccc(O)cc31)[C@@H]2C [Compound 27]    yes

// query A record lists COc1ccc2c(c1)[C@]1(CCNC(=O)[C@H](C)NC(C)=O)CCN(CC3CC3)[C@H](C2)[C@@H]1C [Compound 4] . Is its Emax below 50%?
// result no
